Overview of recorded Population Membrane Permeable-Phenotype (%) for various compounds
# Test system: U2OS
# experimental_details: Multiplex assay against U2OS
# Assay type: toxicity, cell-based
# measurement_conditions: human, 24 h, 10 µM, compound concentration 10 uM, replicate 1
// return numeric value only (unit: %, not printed)

# example entries with known answers
O=C(NCCO)c1cccc(-c2cc(Nc3ccc(OC(F)(F)F)cc3)ncn2)c1 :: 6
CCOc1c2c(c(OCC)c3ncccc13)CN(c1ccc(CS(=O)(=O)NC(=O)Cc3ccccc3OC)cc1C)C2=O :: 6
Cc1ccc(/C(=C\CN2CCCC2)c2ccccn2)cc1 [TRIPROLIDINE] :: 12
CN(C)CCCc1cc(C(=O)Nc2ccc(-c3ccncc3)cc2)ccc1O.Cl.Cl :: 6

Data request: Give its Population Membrane Permeable-Phenotype (%) value. Item: CCCN1CCC[C@@H]2Cc3n[nH]cc3C[C@H]21.Cl [QUINPIROLE HYDROCHLORIDE]
Data returned: 2

---

# Total Cell Count values compiled below
# System: Fibroblast
# experimental_details: Multiplex assay against human fibroblast
# Type: toxicity, cell-based
# measurement_conditions: 12 h, 10 µM, compound concentration 10 uM, replicate 2
Lab note: jot down the number only; don't add units.

Use the examples below as a reference point.
O=C(NCCO)c1cccc(-c2cc(Nc3ccc(OC(F)(F)F)cc3)ncn2)c1 :: 192
O=S(=O)(c1ccccc1)c1cnc2c(N3CCNCC3)cccc2c1 [INTEPIRDINE] :: 136
Oc1c(CN2CCN(c3ccccn3)CC2)cc(Cl)c2cccnc12 :: 131
CC(=O)NCCc1c(Cc2ccccc2)[nH]c2ccccc12 :: 105
CCOc1c2c(c(OCC)c3ncccc13)CN(c1ccc(CS(=O)(=O)NC(=O)Cc3ccccc3OC)cc1C)C2=O :: 146

Data request: Reported Total Cell Count, molecule C[C@H](NC(=O)c1c(C(F)F)nn(C)c1Oc1cccc(C(F)(F)F)c1)c1ccc(C(=O)O)cc1 : ____
Data returned: 149

Data request: Moving on to the next molecule: N#Cc1c(N)nc(SCc2csc(-c3ccc(Cl)cc3)n2)c(C#N)c1-c1ccc(OCCO)cc1
Data returned: 128

Data request: What do you have for Cc1ccc(/C(=C\CN2CCCC2)c2ccccn2)cc1 ?
Data returned: 141

Data request: What do we get for O=C(O)c1cc2ccccc2c(Cc2c(O)c(C(=O)O)cc3ccccc23)c1O ?
Data returned: 156

Data request: Do the same for C[C@H]1[C@H]2CC[C@H]3[C@@H]4CC=C5C[C@@H](N(C)C)CC[C@]5(C)[C@H]4CC[C@]23CN1C please
Data returned: 110

Data request: Entry CN(C)CCCc1cc(C(=O)Nc2ccc(-c3ccncc3)cc2)ccc1O.Cl.Cl please
Data returned: 236

Data request: Consider next the molecule CN(C)c1ccnc2sc3c(=O)n(N4CCCCCC4)cnc3c12 in the same way.
Data returned: 145

---

# Tested on: U2OS
# experimental_details: Multiplex assay against U2OS
# Type: toxicity, cell-based
# measurement_conditions: human, 48 h, 10 µM, compound concentration 10 uM, replicate 2
In this section, each of the compounds is paired with its reported Population Membrane Permeable-Phenotype (%).
Report the figure in % without appending any unit label.

CSc1ccccc1N1CCN(CCCCCC(=O)NC2CCCc3ccccc32)CC1.Cl (stereo unspecified) :: 85
CN(C)CCCc1cc(C(=O)Nc2ccc(-c3ccncc3)cc2)ccc1O.Cl.Cl :: 13
Cc1ccc(C(C)(O)c2nc3ccccc3s2)c(C)c1 (stereo unspecified) :: 5

Data request: For the compound N[C@@]1(C(=O)O)CO[C@H]2[C@H](C(=O)O)[C@H]21 [LY-379268] , what Population Membrane Permeable-Phenotype (%) is on record?
Data returned: 3

Data request: And the next one, CC[C@H]1OC(=O)[C@H](C)[C@@H](O[C@H]2C[C@@](C)(OC)[C@@H](O)[C@H](C)O2)[C@H](C)[C@@H](O[C@@H]2O[C@H](C)C[C@H](N(C)C)[C@H]2O)[C@@]2(C)CC(C)=C(O2)[C@H](C)[C@@H](O)[C@]1(C)O ?
Data returned: 62

---

# Test system: HEK-293T
# experimental_details: Multiplex assay against HEK293T
# Format: toxicity, cell-based
# measurement_conditions: human, 24 h, 10 µM, compound concentration 10 uM, replicate 1
property: Population Mitochondria Different-Phenotype (%)
Numeric answer only, unit % assumed.

Answered examples (3):
Cc1ccccc1C(=O)Nc1ccc(C(=O)N2CCCC(N(C)C)c3ccccc32)cc1.Cl (stereo not given) :: 71
CSCC[C@H](NC=O)C(=O)N[C@@H](CC(C)C)C(=O)N[C@@H](Cc1ccccc1)C(=O)O :: 38
N[C@@]1(C(=O)O)CO[C@H]2[C@H](C(=O)O)[C@H]21 [LY-379268] :: 24

Data request: Would you kindly share the measured Population Mitochondria Different-Phenotype (%) for COc1c(C)cc(NC(=O)c2nn(Cc3ccc(F)cc3)c3c2CN(C(=O)c2ccc[nH]2)C[C@]3(C)C(N)=O)cc1C ?
Data returned: 91

Data request: Same question for COc1ccccc1N1CCN(CCCCNC(=O)c2ccc3ccccc3c2)CC1.Cl please.
Data returned: 96

---

In this section, each of the compounds is paired with its reported Population Fragmented Nuclei (%).
# Test system: Fibroblast
# experimental_details: Multiplex assay against human fibroblast
# Assay type: toxicity, cell-based
# measurement_conditions: 48 h, 10 µM, compound concentration 10 uM, replicate 2
Answer format: numeric, % implied, no suffix.

O=S(=O)(c1ccccc1)c1cnc2c(N3CCNCC3)cccc2c1 [INTEPIRDINE] :: 48
CC[C@H]1OC(=O)[C@H](C)[C@@H](O[C@H]2C[C@@](C)(OC)[C@@H](O)[C@H](C)O2)[C@H](C)[C@@H](O[C@@H]2O[C@H](C)C[C@H](N(C)C)[C@H]2O)[C@@]2(C)CC(C)=C(O2)[C@H](C)[C@@H](O)[C@]1(C)O :: 43
C[C@H]1[C@H]2CC[C@H]3[C@@H]4CC=C5C[C@@H](N(C)C)CC[C@]5(C)[C@H]4CC[C@]23CN1C :: 29
CCCn1c(=O)c2[nH]c(C3CCCC3)nc2n(CCC)c1=O :: 43
O=C(O)c1cc2ccccc2c(Cc2c(O)c(C(=O)O)cc3ccccc23)c1O :: 32

Data request: What is its Population Fragmented Nuclei (%) for Fibroblast? Entry: CN1CCN(c2nc3cc(C(F)(F)F)ccc3n3cccc23)CC1.O=C(O)/C=C\C(=O)O.O=C(O)/C=C\C(=O)O
Data returned: 33

Data request: And then CN(C)c1ccnc2sc3c(=O)n(N4CCCCCC4)cnc3c12 , what is it?
Data returned: 47

---

# Tested on: Fibroblast
# experimental_details: Multiplex assay against human fibroblast
# Type: toxicity, cell-based
# measurement_conditions: 12 h, 1 µM, compound concentration 1 uM, replicate 2
property: Population Mitochondria Different-Phenotype (%)

# count of solved cases: 4
Cc1ccccc1C(=O)Nc1ccc(C(=O)N2CCCC(N(C)C)c3ccccc32)cc1.Cl (stereo not given) :: 3%
O=C1COc2nccc(-c3ccccc3F)c2CN1Cc1cc(C(F)(F)F)cc(C(F)(F)F)c1 :: 5%
CN(C)CCCc1cc(C(=O)Nc2ccc(-c3ccncc3)cc2)ccc1O.Cl.Cl :: 4%
O=C(O)c1cc2ccccc2c(Cc2c(O)c(C(=O)O)cc3ccccc23)c1O [PAMOIC ACID] :: 8%

Shifting focus to the compound that follows.
Data request: What value of measured Population Mitochondria Different-Phenotype (%) is listed for CCNC1(C(N)=O)CCN(c2ncnc3c2nc(-c2ccccc2Cl)n3-c2ccc(Cl)cc2)CC1 [OTENABANT] ?
Data returned: 10%

---

# System: Fibroblast
# experimental_details: Multiplex assay against human fibroblast
# Assay type: toxicity, cell-based
# measurement_conditions: 24 h, 1 µM, compound concentration 1 uM, replicate 2
property: Population Hoechst High Intensity Objects (%)

Solved entries:
COc1cc(NC(=O)CCN2CCC(OC(=O)Nc3ccccc3-c3ccccc3)CC2)c(Cl)cc1CNC[C@H](O)c1ccc(O)c2[nH]c(=O)ccc12 [BATEFENTEROL] :: 2%
COc1ccc2c(c1)C(C(=O)N(Cc1ccc(N(C)C)cc1)c1ccc(C(C)C)cc1)CCC2.Cl (stereo not given) :: 3%
Oc1c(CN2CCN(c3ccccn3)CC2)cc(Cl)c2cccnc12 :: 5%
O=C(NCCO)c1cccc(-c2cc(Nc3ccc(OC(F)(F)F)cc3)ncn2)c1 :: 2%

Now, please, on to the next compound.
Data request: Requested field: Population Hoechst High Intensity Objects (%). Item: CCNC1(C(N)=O)CCN(c2ncnc3c2nc(-c2ccccc2Cl)n3-c2ccc(Cl)cc2)CC1 [OTENABANT]
Data returned: 5%

---

# System: Fibroblast
# experimental_details: Multiplex assay against human fibroblast
# Type: toxicity, cell-based
# measurement_conditions: 24 h, 1 µM, compound concentration 1 uM, replicate 1
Note to self: use 1 only for Population Fragmented Nuclei (%) readings below 20%; a reading exactly at 20% still gets -1.

Consider the following illustrative entries.
COc1cc(C(=O)N(CCCc2ccccc2)Cc2ccc(CC(=O)O)cc2)cc(OC)c1C :: 1
COc1cc(NC(=O)CCN2CCC(OC(=O)Nc3ccccc3-c3ccccc3)CC2)c(Cl)cc1CNC[C@H](O)c1ccc(O)c2[nH]c(=O)ccc12 :: -1
CC(=O)NCCc1c(Cc2ccccc2)[nH]c2ccccc12 :: -1
CC(C)(C)c1ccc(S(=O)(=O)Nc2ccc(Cl)cc2C(=O)c2cc[n+]([O-])cc2)cc1 :: -1
C[C@H](NC(=O)c1c(C(F)F)nn(C)c1Oc1cccc(C(F)(F)F)c1)c1ccc(C(=O)O)cc1 :: -1

Data request: Population Fragmented Nuclei (%) strictly < 20% for this compound? Cc1ccc(/C(=C\CN2CCCC2)c2ccccn2)cc1
Data returned: 1

Data request: Now give it for CCNC1(C(N)=O)CCN(c2ncnc3c2nc(-c2ccccc2Cl)n3-c2ccc(Cl)cc2)CC1 too.
Data returned: 1
